The following binders are shown together with reported IC50 values.
# EXPERIMENTAL_TARGET: T1, recombinant human IL-23R/Fc chimera (R&D Systems) (human, UniProt Q5VWK5 24-355)
# T1 construct: Bought; also called rhIL23RFc
# T1 sequence (looked up): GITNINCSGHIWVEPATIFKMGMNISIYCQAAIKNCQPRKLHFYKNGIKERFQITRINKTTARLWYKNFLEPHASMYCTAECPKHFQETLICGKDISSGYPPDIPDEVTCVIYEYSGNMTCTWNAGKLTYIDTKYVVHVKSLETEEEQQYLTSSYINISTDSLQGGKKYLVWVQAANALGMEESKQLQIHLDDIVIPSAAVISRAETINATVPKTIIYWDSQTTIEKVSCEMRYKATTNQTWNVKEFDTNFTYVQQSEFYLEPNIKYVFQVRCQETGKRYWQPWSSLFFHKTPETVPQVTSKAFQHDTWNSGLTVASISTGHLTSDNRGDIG
# ASSAY_NAME: competition ELISA vs IL-23
All answers are understood in nM, so give the number only.

# example entries with known answers
>>> recorded_value("056-53.H7B ATRIMER complex (designed binder, non-covalent homotrimer of the one chain given, not shown: Also the single Ser the vector leaves after the ompA signal) EPPTQKPKKIVNAKKDVVNTKMFEELKSRLDTLAQEVALLKEQQALQTVCLKGTKVHMKCFLAFTQTKTFHEASEDCISRGGTLSTPQTGSENDALYEYLRQSVGNEAEIWLGLNAGRMGLVWVDMTGARIAYKNWETEITAQPDGGWGVFGENCAVLSGAANGKWFDKRCRDQLPYICQFGIV")
0.9
>>> recorded_value("001-69.4G8 ATRIMER complex (designed binder, not shown: C-terminal tag: His/Myc (pANA4) or HA-StrepII (pANA10)) EPPTQKPKKIVNAKKDVVNTKMFEELKSRLDTLAQEVALLKEQQALQTVCLKGTKVHMKCFLAFTQTKTFHEASEDCISRGGTLSTPQTGSENDALYEYLRQSVGNEAEIWLGLNGSRRSGVWVDMTGARIAYKNWETEITAQPDGGFGVFGENCAVLSGAANGKWFDKRCRDQLPYICQFGIV")
1.4
>>> recorded_value("056-53.H1G ATRIMER complex (designed binder, Homotrimer of this chain (ATRIMER complex)., not shown: A possible extra N-terminal Ser from the ompA junction is left out) EPPTQKPKKIVNAKKDVVNTKMFEELKSRLDTLAQEVALLKEQQALQTVCLKGTKVHMKCFLAFTQTKTFHEASEDCISRGGTLSTPQTGSENDALYEYLRQSVGNEAEIWLGLNSGHWRAVWVDMTGARIAYKNWETEITAQPDGGFGVFGENCAVLSGAANGKWFDKRCRDQLPYICQFGIV")
3.75

So what does the record say about IC50 for 056-53.H7H ATRIMER complex (designed binder, Homotrimer of this chain (ATRIMER complex)., not shown: A possible extra N-terminal Ser from the ompA junction is left out) EPPTQKPKKIVNAKKDVVNTKMFEELKSRLDTLAQEVALLKEQQALQTVCLKGTKVHMKCFLAFTQTKTFHEASEDCISRGGTLSTPQTGSENDALYEYLRQSVGNEAEIWLGLNGSSVSDVWVDMTGARIAYKNWETEITAQPDGGFGYFGENCAVLSGAANGKWFDKRCRDQLPYICQFGIV ? 0.53
